target: X-box-binding protein 1 (Homo sapiens) (UniProt P17861); assay: ATG_Xbp1_CIS: Attagene CIS-FACTORIAL HepG2 Assay for human X-box Binding Protein 1 (XBP1) (AID 2282972); details: HepG2 XBP1 cis-element reporter, Attagene multiplex; actives raise or lower the signal
Sequence (P17861 whole entry, looked up): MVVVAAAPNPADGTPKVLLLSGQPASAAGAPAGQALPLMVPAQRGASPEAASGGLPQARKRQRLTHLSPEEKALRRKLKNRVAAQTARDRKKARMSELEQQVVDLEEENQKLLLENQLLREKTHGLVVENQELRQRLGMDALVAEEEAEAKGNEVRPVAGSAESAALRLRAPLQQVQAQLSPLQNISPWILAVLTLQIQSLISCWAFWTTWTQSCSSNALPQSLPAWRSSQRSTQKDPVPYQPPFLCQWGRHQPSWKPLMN
The source made the active and inactive calls. The calls were made as follows: active = hit-call score of the fitted dose curve at least 0.9, where 1 is the maximum; inactive = score below 0.9.
Possible outcomes: true (1) = active, false (0) = inactive

1. COCC(C)OCC(C)O (configuration not stated)
false (0)
2. CCc1ccc(CCOc2ccc(CC3SC(=O)NC3=O)cc2)nc1 (configuration not stated)
false (0)
3. COc1cc(CCC(=O)CC(=O)CCc2ccc(O)c(OC)c2)ccc1O
false (0)
4. NCC(F)(F)C(F)(F)C(F)(F)C(F)(F)C(F)(F)C(F)(F)C(F)(F)F
false (0)
5. CC(C)(C)c1cccc(C(C)(C)C)c1O
true (1)
6. CCCCCCCCCCCCCCCS(=O)(=O)Oc1ccccc1
false (0)
7. CCCCCCCCCCCCc1ccccc1S(=O)(=O)O
false (0)
8. C[C@@H]1C[C@H]2[C@@H]3CCC4=CC(=O)C=C[C@]4(C)[C@@]3(F)[C@@H](O)C[C@]2(C)[C@@]1(O)C(=O)COP(=O)(O)O
false (0)
9. COc1ccc([N+](=O)[O-])cc1N
false (0)
10. Cc1oc(-c2ccccc2)nc1CCOc1ccc(C[C@H](Nc2ccccc2C(=O)c2ccccc2)C(=O)O)cc1
false (0)
11. C=C(C)C(=O)OCCC(F)(F)C(F)(F)C(F)(F)C(F)(F)C(F)(F)C(F)(F)F
false (0)
12. Cc1cc(CCN2CCN(c3nsc4ccccc34)CC2)cc2c1NC(=O)CC2(C)C
true (1)
13. Cc1ccc(S(=O)(=O)O)c(C)c1
false (0)
14. CCCCCCCCCCCCN1CCCC1=O
false (0)
15. CCCCCCCCOC(=O)CCCCCCCCC(=O)OCCCCCCCC
false (0)
16. CN(C)C=O
false (0)
17. CC(C)CCCCCCOC(=O)CCCCC(=O)OCCCCCCC(C)C
false (0)
18. CCCOc1sc(C(=O)N2CCC(c3cc(CN)ccc3F)CC2)c(C)c1Br
false (0)
19. NC(=O)N1C(=O)C(C(=O)c2cc(Cl)cs2)c2cc(F)c(Cl)cc21 (configuration not stated)
true (1)
20. CC[C@H](c1ccc(O)cc1)[C@@H](CC)c1ccc(O)cc1
false (0)
21. Nc1cccc2c(N)cccc12
false (0)
22. c1ccc2cc3c(ccc4ccccc43)cc2c1
false (0)
23. CC(C)(C)c1ccc(O)c(C(C)(C)C)c1
false (0)
24. OC1CCC(C2CCCCC2)CC1 (configuration not stated)
false (0)
25. O=c1c(-c2ccc(O)cc2)coc2cc(O)ccc12
false (0)
26. O=C(O)c1ccccc1C(c1ccc(O)cc1)c1ccc(O)cc1
false (0)
27. CC(=O)NC1(c2cccc(F)c2)CCN(CC[C@@]2(c3ccc(Cl)c(Cl)c3)CN(c3ccccc3)C(=O)CO2)CC1
true (1)
28. CCCCCCCC(=O)O
false (0)
29. CC(O)C(=O)O (configuration not stated)
false (0)
30. CCCCC[C@H](O)CC(=O)CCc1ccc(O)c(OC)c1
false (0)
31. CCCCOCCO
false (0)
32. CCCCCCCCC(=O)O
false (0)

meta.source: PubChem BioAssay (EPA / NIEHS)
